B1: CPEB3 Ribozyme (parent)
chain: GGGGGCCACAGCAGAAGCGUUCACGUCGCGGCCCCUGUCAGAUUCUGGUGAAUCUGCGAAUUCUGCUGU

- Variants of: B1
- Assay name: self-cleavage, relative activity (ratio to wild type); higher = more cleavage; co-transcriptional
self-cleavage class ranges: class A: < 0.3; class B: ≥ 0.3 and < 0.9; class C: ≥ 0.9

# example entries with known answers
{"Mutation code": "U46C G58U", "Assigned label": "class C"}
{"Mutation code": "G2A C12U", "Assigned label": "class A"}
{"Mutation code": "A13U C24G", "Assigned label": "class A"}

**Query** Which class does A23G G25C fall in?
**Result** class A

**Query** Check G28U G65A too.
**Result** class A

**Query** Check G30A G31U too.
**Result** class A

**Query** Check U38A U64A too.
**Result** class B

**Query** Check G47C U49A too.
**Result** class C

**Query** Check G48C G58U too.
**Result** class C

**Query** Check A40G G56C too.
**Result** class B

**Query** Check U49C C54A too.
**Result** class B
